- TGT: T1, recombinant hIL4R-his (human IL-4R extracellular domain with C-terminal His tag) (human (Homo sapiens), UniProt P24394 26-232)
- T1 construct: The tag was added at the C-terminus; The protein was expressed in HEK293 cells; also called huIL4R
- T1 sequence: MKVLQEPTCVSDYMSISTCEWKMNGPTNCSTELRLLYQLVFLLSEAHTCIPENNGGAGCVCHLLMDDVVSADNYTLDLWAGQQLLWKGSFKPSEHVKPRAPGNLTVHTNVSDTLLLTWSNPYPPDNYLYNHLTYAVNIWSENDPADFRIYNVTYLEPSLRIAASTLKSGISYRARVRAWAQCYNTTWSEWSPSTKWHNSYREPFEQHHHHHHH
- ASSAY_METHOD_TEXT: SPR Biacore X100, antibody captured by anti-human Fc, IL4R-his as analyte, 25 C
OBSERVED_PROPERTY: koff

Here's what some known entries look like.
BINDER | koff
L28F8-IgG4 (antibody, V domains shown, also called S1E6 light chain mutant L28F8) VH: EVQLVESGGGLVQPGGSLRLSCAVSGFTFSSYAMSWVRQAPGKGLEWVSSITGGGGGIYYADSVKGRFTISRDNSKNTVYLQMNSLRAEDTAVYYCAKDRISITIRPRYFGLDFWGQGTTVTVSS VL: DIVMTQSPLSLPVTPGEPASISCRSSQNVVYGNGYNYLDWYLQKSGQSPQLLIYLGTNVAAGVPDRFSGSGSGTDFTLKISRVEAEDVGFYYCMQSLQAPYTFGQGTKLEIKR | 0.000144 s⁻¹
L28C9-IgG4 (antibody, V domains shown, also called S1E6 light chain mutant L28C9) VH: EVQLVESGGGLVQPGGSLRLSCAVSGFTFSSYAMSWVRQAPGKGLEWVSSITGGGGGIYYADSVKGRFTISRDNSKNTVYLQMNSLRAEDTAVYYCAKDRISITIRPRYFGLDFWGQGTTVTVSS VL: DIVMTQSPLSLPVTPGEPASISCRSSQNVVYGNGYNYLDWYLQKSGQSPQLLIYLGNNVAAGVPDRFSGSGSGTDFTLKISRVEAEDVGFYYCMQSLKAPYTFGQGTKLEIKR | 0.000194 s⁻¹

Exercise: Please look at this binder and report its koff: L18D7-IgG4 (antibody, V domains shown, also called S1E6 light chain mutant L18D7) VH: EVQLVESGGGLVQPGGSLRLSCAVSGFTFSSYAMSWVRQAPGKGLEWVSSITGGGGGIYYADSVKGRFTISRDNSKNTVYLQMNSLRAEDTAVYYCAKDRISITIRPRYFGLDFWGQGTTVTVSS VL: DIVMTQSPLSLPVTPGEPASISCRSSQSLLYSIGYNYLDWYLQKSGQSPQLLIYLGSNRASGVPDRFSGSGSGTDFTLKISRVEAEDVGFYYCMQSFKAPYTFGQGTKLEIKR
Key: 0.000143 s⁻¹

Numbers sourced from patent US20220081485A1.
